# ASSAY PROTOCOL: calcium flux activation in mu-opioid HEK293 cells, confirmation, counter-screen for TRPC4 activator project, cell-based, HEK293 mu-opioid receptor line (AID 449723);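 further: counter screen cells carry the mu-opioid receptor alone and lack TRPC4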; on activation: reference of the scale not given here
# TEST CONDITIONS: Fluo-4 calcium fluorescence, at 10 µM
Active and inactive are the calls of the source.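 How the source made its calls: active means hit in primary screen, with calcium signal over 5 SD above buffer well mean in both duplicates; inactive means the rest.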
Please reply with one of these outcomes: T for active, F for inactive

Prompt: # lookup: test call for "Cc1onc(-c2ccccc2)c1C(=O)NNC(=S)NC(=O)/C=C/c1ccccc1"
Completion: T

Prompt: # lookup: test call for COc1ccc(C(CNC(=O)c2cccc(S(=O)(=O)NCc3ccccc3)c2)N(C)C)cc1 (stereo unspecified)
Completion: F

Prompt: # lookup: test call for "O=C(N/N=C/c1cccnc1)c1ccccc1OCc1ccc(Cl)cc1"
Completion: F

Prompt: # lookup: test call for "CCCOc1ccc(C(=O)NC(=S)NNC(=O)c2c(-c3ccccc3)noc2C)cc1"
Completion: T

Prompt: # lookup: test call for "O=C(NCCc1cccc(Cl)c1)c1ccc(OC2CCN(Cc3ccccn3)CC2)cc1"
Completion: F

Prompt: # lookup: test call for "CCN1C(=O)c2cccc3c(S(=O)(=O)Nc4ccccc4OC)ccc1c23"
Completion: F

Prompt: # lookup: test call for Cc1ccc(C2(O)CN(c3ccccc3C)C3=[N+]2CCS3)cc1 (stereo unspecified)
Completion: F

Prompt: # lookup: test call for CCCCC(c1nnnn1CC1CCCO1)N1CCN(c2nc3ccccc3s2)CC1 (stereo unspecified)
Completion: F

Prompt: # lookup: test call for CC1CN(C(=O)c2ccc(NS(=O)(=O)c3ccc(C(C)(C)C)cc3)cc2)CC(C)O1 (stereo unspecified)
Completion: T

Prompt: # lookup: test call for "CC(C)(C)C(=O)NC(=S)NNC(=O)C(c1ccccc1)c1ccccc1"
Completion: T

Prompt: # lookup: test call for Cc1ccc(Cl)cc1NC(=O)CNCC(c1ccccc1)N(C)C (stereo unspecified)
Completion: F

Prompt: # lookup: test call for "Cc1ccc(C)c(OCCCCCn2ccnc2)c1"
Completion: F

Prompt: # lookup: test call for Cc1ccc(-n2cc(CNCC3CC(=O)N(C4CC4)C3)c(-c3cccc(C)c3)n2)cc1 (stereo unspecified)
Completion: F

Prompt: # lookup: test call for "O=C(O)c1ccc(-c2ccc(/C=c3/sc4nc5ccccc5n4c3=O)o2)cc1Cl"
Completion: T

Prompt: # lookup: test call for "CCn1c(N2CCN(Cc3ccc([N+](=O)[O-])cc3)CC2)nc2ccccc21"
Completion: F

Prompt: # lookup: test call for "CC(C)(C)c1ccccc1NC(=O)NC1CCN(Cc2c(F)cccc2Cl)CC1"
Completion: F

Prompt: # lookup: test call for "COc1ccc(C(=O)NC(=S)NNC(=O)CCc2ccccc2)cc1"
Completion: F

Prompt: # lookup: test call for CCOC(=O)C1CCCN(C(c2ccccn2)c2c(C)[nH]c3ccccc23)C1 (stereo unspecified)
Completion: F

Prompt: # lookup: test call for "CCN(CC)CCSc1nc2ccc(OC)cc2[nH]1"
Completion: F

Prompt: # lookup: test call for CN(C)C(CNC(=O)/C=C/c1cccc(Cl)c1)c1ccccc1 (stereo unspecified)
Completion: F

Prompt: # lookup: test call for CN(C)C(CNC(=O)c1ccc2ccccc2n1)c1ccccc1 (stereo unspecified)
Completion: F

Prompt: # lookup: test call for "O=C(NC1CC1)C1=C[C@H](C2CCCCC2)C[C@H](OCc2ccc(CO)cc2)O1"
Completion: F

Prompt: # lookup: test call for Fc1ccc(C(c2nnnn2Cc2cccs2)N2CCN(C3CCCCC3)CC2)cc1 (stereo unspecified)
Completion: F

Prompt: # lookup: test call for "COc1cc(/C=C2/SC(=S)N(Cc3ccccc3)C2=O)cc(Cl)c1O"
Completion: T

Prompt: # lookup: test call for "O=c1c2cc(Br)ccc2nc(-c2cccc(C(F)(F)F)c2)n1O"
Completion: T

Prompt: # lookup: test call for "CCOc1ccccc1OCC(=O)Nc1cc(S(=O)(=O)N2CCCCC2)ccc1N1CCN(CC)CC1"
Completion: F

Prompt: # lookup: test call for CC(c1cccnc1)N(CCN(C)C)C(=O)Nc1ccc(Cl)c(Cl)c1 (stereo unspecified)
Completion: F

Prompt: # lookup: test call for "Cc1cccc(C(=O)NNC(=S)NC(=O)c2ccccc2)c1"
Completion: T

Prompt: # lookup: test call for "Cc1cc(OCCCn2ccnc2)ccc1[N+](=O)[O-]"
Completion: F

Prompt: # lookup: test call for "CN(C)CCCN(C(=O)c1ccc(S(=O)(=O)N(C)C)cc1)c1nc2ccc(F)cc2s1"
Completion: F

Prompt: # lookup: test call for "O=C(COc1ccccc1)NNC(=S)NC(=O)c1ccc(Cl)cc1Cl"
Completion: F
